experiment: qHTS assay to identify small molecule antagonists of the sonic hedgehog signaling (Shh) pathway (AID 1259369); settings: NIH/3T3 Gli1-Luc reporter, Shh antagonist, luminescence 24 h; series mostly up to 92.4 µM; also: nearly all actives have a fitted effect of over 45% in size
Results filed as inconclusive are left out. Active and inactive are the calls of the source. Calls follow the shape of the full dose curve.
Returns: one label drawn from Yes = active, No = inactive

Reference set (2 entries):
- Compound: "Cc1ccccc1C(OCCN(C)C)c1ccccc1 (configuration not stated)"
  Discrete label: "Yes"
- Compound: "OC(Cn1cncn1)(Cn1cncn1)c1ccc(F)cc1F"
  Discrete label: "No"

Tell me the recorded outcome of this test for Cc1noc(NS(=O)(=O)c2ccc(N)cc2)c1C .
No

What about Cc1cc(=O)n(-c2ccccc2)n1C ?
No

What about NNC(=O)c1ccncc1 ?
No

What about O=C(O)c1cccc([N+](=O)[O-])c1 ?
No

What about CC(C)(Oc1ccc(C2CC2(Cl)Cl)cc1)C(=O)O (configuration not stated) ?
No
